target: UniProt:P0A6D3; assay: Compound was tested for inhibitory activity against EPSP(5-enolpyruvylshikimate 3-phosphate) synthase in Escherichia coli.
Listed next: entries and their corresponding IC50.
Numeric answer only, unit mM assumed.

Solved cases (4 shown):
(Q) Consider the molecule shown here: "O=C(O)c1ccc(O)c(C(O)(C(=O)O)C(=O)O)c1" What is its recorded IC50?
(A) 20

(Q) I am curious: what IC50 value has been reported for "O=C(O)c1cccc(P(=O)(O)O)c1" ?
(A) 50

(Q) Would you kindly share the measured IC50 for "O=C(O)c1cccn1CP(=O)(O)O" ?
(A) 50

(Q) Field request: IC50 | item: "O=C(O)c1cccc(P(=O)(O)O)n1"
(A) 50

Continuing:
(Q) So what does the record say about IC50 for O=C(O)C1CCC(P(=O)(O)O)N1 (stereo not given) ?
(A) 50

====

target: 3-phosphoshikimate 1-carboxyvinyltransferase (Escherichia coli K-12); assay: Compound was tested for inhibitory activity against EPSP(5-enolpyruvylshikimate 3-phosphate) synthase in Escherichia coli.; conditions: read-out: Ki app
Sequence (P0A6D3 whole entry): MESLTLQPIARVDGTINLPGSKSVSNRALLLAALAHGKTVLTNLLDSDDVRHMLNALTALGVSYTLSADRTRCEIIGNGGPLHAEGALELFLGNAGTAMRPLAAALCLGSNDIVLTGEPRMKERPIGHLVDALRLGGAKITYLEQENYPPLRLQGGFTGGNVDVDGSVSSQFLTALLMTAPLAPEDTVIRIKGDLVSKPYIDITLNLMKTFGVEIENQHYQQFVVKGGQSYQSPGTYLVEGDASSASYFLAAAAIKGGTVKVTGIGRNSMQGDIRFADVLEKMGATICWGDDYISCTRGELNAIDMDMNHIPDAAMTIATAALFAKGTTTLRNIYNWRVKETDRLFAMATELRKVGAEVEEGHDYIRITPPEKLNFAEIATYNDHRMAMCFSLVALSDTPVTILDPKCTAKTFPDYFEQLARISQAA
The entries below are paired with their reported Ki.
// note: answer is a bare numeric in nM

Take a look at these entries with their results.
(Q) // query Ki value for entry O=C(O)c1cc(C(O)P(=O)(O)O)c[nH]1 (stereo not given)
(A) 14.5

(Q) Please report the recorded Ki for O=C(O)c1cc(OC(C(=O)O)C(=O)O)cc(OC(C(=O)O)P(=O)(O)O)c1 (stereo not given) .
(A) 1300

(Q) What value of Ki has been reported for the following compound? "C[C@@](O[C@@H]1CC(C(=O)O)=C[C@@H](OP(=O)(O)O)[C@H]1O)(C(=O)O)P(=O)(O)O"
(A) 5

Others:
(Q) # query: Ki of entry O=C(O)c1cc(OC(C(=O)O)P(=O)(O)O)c(O)c(C(O)(C(=O)O)C(=O)O)c1 (stereo not given)
(A) 520

(Q) Need Ki of "O=C(O)C1=C[C@@H](OP(=O)(O)O)[C@@H](O)[C@H](O[C@](OP(=O)(O)O)(C(=O)O)C(F)F)C1" , thanks.
(A) 4
